A collection of compounds and their measured EC50
test system: Oculimacula yallundae; experiment: Fungicidal activity against prochloraz-susceptible Oculimacula yallundae isolate ProS assessed as inhibition of mycelial growth in presence of 10 g glucose incubated at 19 degC in dark for 4 weeks; assay type: functional, organism-based; settings: 672 h
Reply with the number, then its unit.

// below: answered compounds
[[record]]
compound = "Clc1ccc(C2(Cn3cncn3)CC(Br)CO2)c(Cl)c1 (stereo not drawn)"
readout_value = "1.5 µg/mL"

[[record]]
compound = "OC(Cc1ccccc1Cl)(Cn1nc[nH]c1=S)C1(Cl)CC1 (stereo not drawn)"
readout_value = "0.5 µg/mL"


Let me know recorded EC50 for `CCCN(CCOc1c(Cl)cc(Cl)cc1Cl)C(=O)n1ccnc1` , thanks.
0.04 µg/mL

---

system: Oculimacula yallundae; assay: Fungicidal activity against Oculimacula yallundae assessed as inhibition of mycelial growth in presence of 10 g glucose incubated at 19 degC in dark for 4 weeks; type: functional, organism-based; settings: 672 h
readout label: EC50 (µg/mL)
Report only the number, with the unit µg/mL understood.

Below, 3 compounds whose answers are already recorded.
[[record]]
compound = "OC(Cc1ccccc1Cl)(Cn1nc[nH]c1=S)C1(Cl)CC1 (centres undefined) [PROTHIOCONAZOLE]"
readout_label = "EC50"
units_text = "µg/mL"
readout_value = 0.4

[[record]]
compound = "O=C(Nc1ccccc1-c1ccc(Cl)cc1)c1cccnc1Cl [BOSCALID]"
readout_label = "EC50"
units_text = "µg/mL"
readout_value = 0.4

[[record]]
compound = "CC(C1CC1)C(O)(Cn1cncn1)c1ccc(Cl)cc1 (centres undefined) [CYPROCONAZOLE]"
readout_label = "EC50"
units_text = "µg/mL"
readout_value = 0.3


Then this compound:
Answer with the recorded EC50 of Clc1ccc(C2(Cn3cncn3)CC(Br)CO2)c(Cl)c1 (centres undefined) [BROMUCONAZOLE] only.
0.2
